measured-on: human p38 kinase alpha (Homo sapiens)
Construct: GST (N, cleaved yes); made in house; host or cells: E. coli DH10B
test-name: p38 kinase in vitro assay, phosphorylation of biotinylated PHAS-I with 32P-ATP
Assay type: biochemical
condition-set: Table 8; 1% DMSO; read-out: p38α Kinase Assay IC50
Where a name gives a salt, the structure may show the parent alone.
quantity-name: pIC50
To interpret pIC50, take it as minus log10 of a concentration measured in moles per litre.

Past entries and their recorded results:
INSERT INTO results (compound, quantity_name, observed) VALUES
  ('CS(=O)(=O)N1CCN(c2n[nH]c(-c3ccc(Cl)cc3)c2-c2ccncc2)CC1 [Example A-320, monohydrate]', 'pIC50', 6.57),
  ('O=C(O)CCC(=O)N1CCN(c2n[nH]c(-c3ccc(Cl)cc3)c2-c2ccncc2)CC1 [A-321 (dihydrate)]', 'pIC50', 6.11),
  ('O=C(O)c1n[nH]c(-c2ccc(F)cc2)c1-c1ccncc1 [A-313, Step 1, monohydrate]', 'pIC50', 5.87),
  ('Fc1ccc(-c2[nH]ncc2-c2ccnc(Nc3ccccc3F)n2)cc1', 'pIC50', 7.68),
  ('Clc1ccc(-c2[nH]nc(NC3CCNCC3)c2-c2ccncc2)cc1 [Example A-332, trihydrochloride, monohydrate]', 'pIC50', 7.40);

// moving on: another record for pIC50
Dear colleague, please send me the reported pIC50 for O=C(c1n[nH]c(-c2ccc(F)cc2)c1-c1ccncc1)N1CCNCC1 when you can.
6.07

----------
Entries and their pIC50
measured-on: human p38 kinase alpha (Homo sapiens)
Construct: GST (N, cleaved yes); made in house; host or cells: E. coli DH10B
test-name: p38 kinase in vitro assay, phosphorylation of biotinylated PHAS-I with 32P-ATP
Assay type: biochemical
condition-set: in vitro P38-alpha kinase; read-out: P38 alpha kinase IC50
To interpret pIC50, take it as minus log10 of a concentration measured in moles per litre.

Past entries and their recorded results:
INSERT INTO assay_data (compound, measured_on, quantity_name, observed) VALUES
  ('CC(=O)N1CCC(c2[nH]nc(-c3ccc(F)cc3)c2-c2ccncc2)CC1', 'human p38 kinase alpha (Homo sapiens)', 'pIC50', 8.05),
  ('C=CCOC(=O)N1CCC(c2[nH]nc(-c3ccc(F)cc3)c2-c2ccncc2)CC1 [Example B-1362]', 'human p38 kinase alpha (Homo sapiens)', 'pIC50', 8.52),
  ('O=C(c1ccccc1C(F)(F)F)N1CCC(c2[nH]nc(-c3ccc(F)cc3)c2-c2ccncc2)CC1', 'human p38 kinase alpha (Homo sapiens)', 'pIC50', 6.85);

Dear colleague, please send me the reported pIC50 for COc1ccc(CNC(=O)Cn2nc(-c3ccc(F)cc3)c(-c3ccncc3)c2C)c(OC)c1 when you can.
6.10

----------
measured-on: human p38 kinase alpha (Homo sapiens, UniProt Q16539)
Construct: GST (N, cleaved yes); made in house; host or cells: E. coli DH10B
Sequence (Q16539 whole entry): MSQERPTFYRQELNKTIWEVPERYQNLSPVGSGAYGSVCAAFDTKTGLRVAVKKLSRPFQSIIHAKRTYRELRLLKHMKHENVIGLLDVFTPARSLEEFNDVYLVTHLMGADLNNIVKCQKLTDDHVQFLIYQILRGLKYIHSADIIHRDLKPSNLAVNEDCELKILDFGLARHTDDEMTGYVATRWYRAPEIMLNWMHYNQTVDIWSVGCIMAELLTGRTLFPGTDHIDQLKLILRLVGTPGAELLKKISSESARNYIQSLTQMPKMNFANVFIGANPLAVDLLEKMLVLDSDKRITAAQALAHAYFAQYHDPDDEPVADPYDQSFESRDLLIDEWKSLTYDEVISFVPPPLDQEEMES
test-name: p38 kinase in vitro assay, phosphorylation of biotinylated PHAS-I with 32P-ATP
Type: biochemical
condition-set: @ 1.0 uM; read-out: P38 alpha kinase % inhib @ conc.
quantity-name: inhibition at 1 µM

Past entries and their recorded results:
INSERT INTO measurements (compound, observed) VALUES
  ('CC(C)c1cc(C(C)C)c(C(=O)NCc2[nH]nc(-c3ccc(F)cc3)c2-c2ccncc2)c(C(C)C)c1', '92%'),
  ('COc1ccc(CC(=O)NCc2[nH]nc(-c3ccc(F)cc3)c2-c2ccncc2)cc1OC', '95%'),
  ('COc1ccc(OC)c(CC(=O)NCc2[nH]nc(-c3ccc(F)cc3)c2-c2ccncc2)c1', '70%'),
  ('O=C(NCc1[nH]nc(-c2ccc(F)cc2)c1-c1ccncc1)c1ccccc1I', '95%'),
  ('CCCCCCC(=O)NCc1[nH]nc(-c2ccc(F)cc2)c1-c1ccncc1', '82%'),
  ('CCCCOc1ccc(C(=O)NCc2[nH]nc(-c3ccc(F)cc3)c2-c2ccncc2)cc1', '65%');

Dear colleague, please send me the reported inhibition at 1 µM for O=C(NCc1[nH]nc(-c2ccc(F)cc2)c1-c1ccncc1)c1ccccc1[N+](=O)[O-] when you can.
94%

Dear colleague, please send me the reported inhibition at 1 µM for COc1ccc(C(=O)NCc2[nH]nc(-c3ccc(F)cc3)c2-c2ccncc2)cc1 when you can.
89%

Dear colleague, please send me the reported inhibition at 1 µM for Cc1ccc(C(=O)NCc2[nH]nc(-c3ccc(F)cc3)c2-c2ccncc2)cc1 when you can.
68%

Dear colleague, please send me the reported inhibition at 1 µM for O=C(NCc1[nH]nc(-c2ccc(F)cc2)c1-c1ccncc1)[C@@H]1C[C@@H]1c1ccccc1 when you can.
71%

The values you see were collected from patent US6979686B1.
